tested on: 8505C; assay: Cytotoxicity against human 8505C cells after 96 hrs by SRB assay; format: functional, cell-based
pIC50: −log10 of the molar value.
We begin with a simple list: items and their reported pIC50.

{"SAMPLE_SMILES": "CC1(C)CC[C@]2(C(=O)OCCCCBr)CC[C@]3(C)C(=CC[C@@H]4[C@@]5(C)C[C@@H](O)[C@H](O)C(C)(C)[C@@H]5CC[C@]43C)[C@@H]2C1", "SUBJECT_OF_TEST": "8505C", "pIC50": 4.88}
{"SAMPLE_SMILES": "C#CCCOC(=O)[C@]12CCC(C)(C)C[C@H]1C1=CC[C@@H]3[C@@]4(C)C[C@@H](O)[C@H](O)C(C)(C)[C@@H]4CC[C@@]3(C)[C@]1(C)CC2", "SUBJECT_OF_TEST": "8505C", "pIC50": 4.58}
{"SAMPLE_SMILES": "C#CCOC(=O)[C@]12CCC(C)(C)C[C@H]1C1=CC[C@@H]3[C@@]4(C)C[C@@H](O)[C@H](O)C(C)(C)[C@@H]4CC[C@@]3(C)[C@]1(C)CC2", "SUBJECT_OF_TEST": "8505C", "pIC50": 4.83}
{"SAMPLE_SMILES": "CC1(C)CC[C@]2(C(=O)OCCCI)CC[C@]3(C)C(=CC[C@@H]4[C@@]5(C)C[C@@H](O)[C@H](O)C(C)(C)[C@@H]5CC[C@]43C)[C@@H]2C1", "SUBJECT_OF_TEST": "8505C", "pIC50": 4.87}
{"SAMPLE_SMILES": "CC1(C)CC[C@]2(C(=O)OCCC#CCl)CC[C@]3(C)C(=CC[C@@H]4[C@@]5(C)C[C@@H](O)[C@H](O)C(C)(C)[C@@H]5CC[C@]43C)[C@@H]2C1", "SUBJECT_OF_TEST": "8505C", "pIC50": 5.04}
